Test: folding stability dG unfold (combined trypsin and chymotrypsin); higher = more stable
Binning of folding stability dG unfold into classes: low: < 0.9 kcal/mol; medium: ≥ 0.9 kcal/mol and < 2 kcal/mol; high: ≥ 2 kcal/mol

Reference set, count: 3
• SAGGSAGGMVYKIRDKETGKVYEVTIDEETNEITVYDVKTGKPVKTVNMTIEELKEAGYEVEPVSAGGSAGG [r6_831_TrROS_Hall] = high
• SAGGSAIKLPPGEEYTIIMRNPQNGRPFKVPIKRVDPGQIQIEIENPKNGEKQKFTIPANDIEIVKSAGGSA [r15_381_TrROS] = low
• SAGGSMKLTTTTPDGKPFEADVTEYPTFYKITFKVGNKEYTLLANPSTNTVDGNVDGFPFKLKLNPSAGGSA [r2_194_TrMRF] = medium

// query Note: place this sequence into its band. Item: SAGGSAGGSSPPVVTVEKYSEEPSPGVLRAVIRHPDGKEIVVTFEDLSPEEAKARAEEVAKLGSAGGSAGGS [r20_181_JUSTAS]
// result low

// query Lab note: sort SAGGSAGGSGMMFELAFREIKYSPNDSVTIKAELPDGSSITIPTKKGEIKFKLPENGYVKVLGSAGGSAGGS [r12_746_JUSTAS] into the matching folding stability dG unfold band.
// result low

// query Class label required: SAGGSAGGEEIAKKLGIEKAEIVEVKDNKITLKVKLKNGEELKIELYIDKKTKEIKIVKIEKVPSAGGSAGG [r6_526_TrROS_Hall]
// result high

// query Input SAGGSLVTTEFPGVTITTDPATGVLTVEASPEEVERLIEALGPEFNPVEIRRLPDGSYLLTLPVTPPSAGGS [r8_415_JUSTAS] ; output its category
// result high

// query Hi, small favor: classify SAGGSAGGLGWGSFKLPFEFWDPANGMPMRNSINIMVIVIPPPPPKVEVEEDPDNGKKKVTYDDSAGGSAGG [r6_926_TrROS] by its folding stability dG unfold when you get a moment.
// result high

// query Lab note: sort SAGGSAGGSAGMVVVERTSAPDPDKPTSYWFYTKTTFFPDGSVLSETKKFPSPAELEKATSAGGSAGGSAGG [r11_792_JUSTAS] into the matching folding stability dG unfold band.
// result medium

// query Band for the recorded folding stability dG unfold of SAGGSAGGFTFRDPENGRKITIEPQPNPDGPMYYNIEVRDPDNNENKTINFPMPLNEIEDLAKDSAGGSAGG [r6_996_TrROS] ?
// result low

// query For SAGGSKIIITYDKEKNVITIKVEKNGKLLEITIEVKSKEDLEEALKKAEELAKELEKKGYKVEIIPSAGGSA [r2_118_TrROS_Hall] , which folding stability dG unfold bin applies?
// result high

// query Band for SAGGSSSSALVTVPRTETFPGTTLTTETLITIDPETGTVKVTSTVYSEGEPVEVVPSTVPAAEVTLSAGGSA [r2_188_JUSTAS] ?
// result low

// query Which bin, given its folding stability dG unfold, does SAGGSAGGSMYIVRIEVVNEETGKTEEIELEVSEEEAEELAKELAEKLPNIKEIKVEIRPLPESAGGSAGGS [r12_757_TrROS_Hall] occupy?
// result medium

* * *

Experiment: folding stability dG unfold (combined trypsin and chymotrypsin); higher = more stable
Use 2 kcal/mol as the dividing line for folding stability dG unfold, with the line itself on the class 1 side and lower values as class 0.

* SAGGSAGGGMKFVKVTLEYAGGEVREYLFTTSSSDSTVEVVIEDLPPEKGARITEITEYPASLLSAGGSAGG [r6_530_JUSTAS] | class 0

Now look at this one.
// query # bool: folding stability dG unfold of PPPDVPVETETKTSTSTLPDGSRLTTTTTTTRAPNGYYYDTTSVTTTVAPDGTVTTTSTSTTKGPLPAALLS [r1_129_JUSTAS] >= 2 kcal/mol
// result class 0

The origin of these recorded values is the supplement of paper PMC12764529.
